test system: SR leukemia; experiment: NCI-60 one-dose screen, 48 h (100 = growth as untreated, 0 = no growth, -100 = all killed); conditions: 10 µM unless noted
The panel holds about 83,000 compounds, 20% with a hit somewhere; the sample as a whole holds those more often.
Define the label as condition met when growth is strictly less than 90% and as condition not met in all remaining cases.

Qu. Please indicate whether the reported growth of CCCCCCCCCCCCCCCCC(=O)O is strictly below 90%.
Ans. condition not met

Qu. Param item: COc1cc2oc3cc(=O)cc4oc(-c5ccccc5)cc(c2c2c1CCC(c1ccccc1)O2)c43 (configuration not stated)
Ans. condition met

Qu. Another: NC1=NC(c2ccccc2)N=C(Nc2ccccc2)N1 (configuration not stated)
Ans. condition met

Qu. Try this compound too: CC(C)(C)OC(=O)c1ccc(NCc2cc(O)ccc2O)cc1
Ans. condition met

Qu. Similarly, O=C(c1ccccc1)C1(Br)CCCCC1 ?
Ans. condition not met

Qu. Okay, and N#CC(=S)Nc1ccc(Cl)c(Cl)c1 ?
Ans. condition met

Qu. Can you check COc1cc(Cl)ccc1C next?
Ans. condition met

* * *

system: RXF 393 renal; assay: NCI-60 one-dose screen, 48 h; details: 10 µM unless noted
The panel holds about 83,000 compounds, 20% with a hit somewhere; the sample as a whole holds those more often. Calls of active or inactive are those of the source. Rule for the calls: active = growth percent below 10; inactive = the rest.
Give one outcome, nothing more. List: active, inactive

Answered examples (3):
>  <Compound>
O=C(N=C1C(=O)C2(CCCCC2)C2(N=C(c3ccccc3)OC2=O)C12CCCCC2)c1ccccc1 (configuration not stated)

>  <Assigned Class>
inactive

$$$$
>  <Compound>
CC(NC(=O)CCl)c1ccccc1 (configuration not stated)

>  <Assigned Class>
inactive

$$$$
>  <Compound>
CC1(C)CC(=O)NC1=O

>  <Assigned Class>
inactive

$$$$

With those in mind, consider the next compound.
Qu. Record lookup: outcome of this test for CC(C)(C)OC(=O)NCCc1ccc(N)cc1 ?
Ans. inactive

* * *

tested on: A498 renal; test: NCI-60 one-dose screen, 48 h (100 = growth as untreated, 0 = no growth, -100 = all killed); details: 10 µM unless noted
The panel holds about 83,000 compounds, 20% with a hit somewhere; the sample as a whole holds those more often.
Recorded growth by entry
The answer is to be given in %; state only the numeric part.

Answered cases to consult:
>  <Molecule>
Cc1ccc([N+](=O)[O-])cc1Br

>  <growth [%]>
88.5

$$$$
>  <Molecule>
CCN(CC)C(=S)SCCO

>  <growth [%]>
75.6

$$$$
>  <Molecule>
NC(=O)Cc1nc(O)cc(=O)[nH]1

>  <growth [%]>
85.6

$$$$

Qu. # lookup: growth of CCOC(=N)c1ccc(C(=N)OCC)cc1
Ans. 90.6

Qu. Another: CC(=O)C[n+]1ccccc1Sc1ccc(Cl)cc1
Ans. 76.4

Qu. Then this molecule: CC(=O)/C(N=Nc1ccc(S(=O)(=O)c2ccc(N=N/C(C(C)=O)=C(/C)O)cc2)cc1)=C(\C)O
Ans. 100

Qu. What would you report for OC1CCCN(Cc2ccccc2)C1 (configuration not stated) ?
Ans. 96.2

Qu. Please answer likewise for CCN(CC)CCO/N=C1\CC(c2ccc(OC)c(OC)c2)Oc2ccccc21 (configuration not stated)
Ans. 112

* * *

Known growth of a selection of compounds
tested on: NCI/ADR-RES ovarian; assay: NCI-60 one-dose screen, 48 h (100 = growth as untreated, 0 = no growth, -100 = all killed); details: 10 µM unless noted
About 83,000 compounds went through this panel and 20% of them were active in at least one assay; those are over-represented in the sample as a whole.
Kindly provide the numeric value in % only, without the unit symbol.

Observe how each entry below is paired with its result.
>  <Compound>
COc1cc(Cl)ccc1C

>  <Assayed System>
NCI/ADR-RES ovarian

>  <growth / %>
97.4

$$$$
>  <Compound>
COc1cc2oc3cc(=O)cc4oc(-c5ccccc5)cc(c2c2c1CCC(c1ccccc1)O2)c43 (stereo not drawn)

>  <Assayed System>
NCI/ADR-RES ovarian

>  <growth / %>
86.6

$$$$

Qu. Item O=C(O)COc1ccccc1F has what recorded growth?
Ans. 114

Qu. Same again, this time with CCCC(=O)OCC(COC(=O)CCC)OC(=O)CCC
Ans. 100

Qu. Request: OCc1cccc(F)c1
Ans. 76.5

Qu. Subsequent entry: CCOc1ccc(/C=C\C(=O)O)cc1
Ans. 110

Qu. Now this one: COc1ccc2nccc(Cl)c2c1
Ans. 104

Qu. Follow-up entry: Nc1ccc(Cl)c(S(=O)(=O)O)c1
Ans. 103

* * *

tested on: HT29 colon; experiment: NCI-60 one-dose screen, 48 h (100 = growth as untreated, 0 = no growth, -100 = all killed); conditions: 10 µM unless noted
About 83,000 compounds went through this panel and 20% of them were active in at least one assay; those are over-represented in the sample as a whole.
Measurement Type: growth (%)
Supply the numeric figure in %, leaving out any unit text.

>  <Compound>
CCOC(C)=N

>  <Assayed System>
HT29 colon

>  <Measurement Type>
growth

>  <Uom>
%

>  <Reported>
102

$$$$
>  <Compound>
O=C(c1ccc(Cl)cc1)C1C(c2ccccc2)C1[N+](=O)[O-] (centres undefined)

>  <Assayed System>
HT29 colon

>  <Measurement Type>
growth

>  <Uom>
%

>  <Reported>
97.2

$$$$
>  <Compound>
OC1CCCN(Cc2ccccc2)C1 (centres undefined)

>  <Assayed System>
HT29 colon

>  <Measurement Type>
growth

>  <Uom>
%

>  <Reported>
102

$$$$
>  <Compound>
S=c1nn[nH]n1C1CCCCC1

>  <Assayed System>
HT29 colon

>  <Measurement Type>
growth

>  <Uom>
%

>  <Reported>
116

$$$$

Qu. GET /values?readout=growth&item= NC(=O)Cc1nc(O)cc(=O)[nH]1
Ans. 93.2

Qu. Note, next up: Cc1ccc(NC(=S)N/C=C(\c2ccccc2)S(=O)Cc2ccccc2)c(C)c1 (centres undefined)
Ans. 108

Qu. Same lookup for CCOC(=O)c1ccc(N2C(=O)C(Cl)(c3ccccc3)C2c2ccco2)cc1 (centres undefined) , please.
Ans. 78.9

Qu. Another compound: CC(=O)Nc1cscc1NC(C)=O
Ans. 96.2

Qu. Same lookup for COc1ccc(COC=O)cc1 , please.
Ans. 104

Qu. What do you get for NNc1ncnc2cccc(Cl)c12 ?
Ans. 95

Qu. Same again, this time with CSc1nc(N)c(N)c(N)n1
Ans. 88.8

Qu. Would you mind doing CCCCNC(=O)c1ccccc1C as well?
Ans. 102

Qu. Another compound to check: Clc1ccc2sc(-c3ccccc3)nc2c1
Ans. 95.1

Qu. Do the same for O=C(c1ccccc1)C1(Br)CCCCC1 please
Ans. 120

* * *

test system: RPMI-8226 leukemia; experiment: NCI-60 one-dose screen, 48 h (100 = growth as untreated, 0 = no growth, -100 = all killed); conditions: 10 µM unless noted
About 83,000 compounds went through this panel and 20% of them were active in at least one assay; those are over-represented in the sample as a whole.
Measurement Type: growth (%)
Number in %, nothing else.

>  <Compound>
COc1ccc([N+](=O)[O-])cc1OC

>  <Assayed System>
RPMI-8226 leukemia

>  <Measurement Type>
growth

>  <Uom>
%

>  <Reported>
106

$$$$
>  <Compound>
Clc1ccc2sc(-c3ccccc3)nc2c1

>  <Assayed System>
RPMI-8226 leukemia

>  <Measurement Type>
growth

>  <Uom>
%

>  <Reported>
97

$$$$
>  <Compound>
OCc1ccccc1F

>  <Assayed System>
RPMI-8226 leukemia

>  <Measurement Type>
growth

>  <Uom>
%

>  <Reported>
106

$$$$
>  <Compound>
COCCCNC1=C(C#N)C(=O)NC(c2cccs2)S1 (stereo not drawn)

>  <Assayed System>
RPMI-8226 leukemia

>  <Measurement Type>
growth

>  <Uom>
%

>  <Reported>
122

$$$$
>  <Compound>
CCCCC/C(C)=N\NC(N)=S

>  <Assayed System>
RPMI-8226 leukemia

>  <Measurement Type>
growth

>  <Uom>
%

>  <Reported>
70.9

$$$$
>  <Compound>
CC(O)CCNC(c1ccccc1)C(O)c1ccccc1 (stereo not drawn)

>  <Assayed System>
RPMI-8226 leukemia

>  <Measurement Type>
growth

>  <Uom>
%

>  <Reported>
89.7

$$$$
>  <Compound>
O=C1c2ccccc2CN1c1ccccc1

>  <Assayed System>
RPMI-8226 leukemia

>  <Measurement Type>
growth

>  <Uom>
%

>  <Reported>
107

$$$$

Qu. Could you tell me which growth is on file for COC(=O)CCOc1ccccc1 ?
Ans. 92.7
